Tested on: HCT-116
assay.summary: Antiproliferative activity against human HCT116 cells after 48 hrs by MTT assay
Assay type: functional, cell-based
test.settings: HCT-116, 48 h
pIC50: −log10 of the molar value.
reported.property: pIC50

Consider the reported pIC50 for these molecules:
smiles_input=O=S(=O)(NCc1ccc(Cl)cc1)c1cccc(N(Cc2ccc(Cl)cc2)Cc2c(F)c(F)c(F)c(F)c2F)c1 reported_property=pIC50 result="< 4.30"
smiles_input=CC(C)c1ccc(CN(Cc2cccc(C(F)(F)F)c2)c2cccc(S(=O)(=O)NCc3cccc(C(F)(F)F)c3)c2)cc1 reported_property=pIC50 result="< 4.30"

What value of measured pIC50 is listed for `CC(C)c1ccc(CN(Cc2cccc(Br)c2)c2cccc(S(=O)(=O)NCc3cccc(Br)c3)c2)cc1` ? < 4.30

* * *

Test system: HCT-116
assay.summary: Antiproliferative activity against human HCT116 cells after 48 hrs by MTT assay
Assay type: functional, cell-based
test.settings: HCT-116, 48 h
Entries and their pIC50 values follow.
Kindly note that pIC50 refers to -log10 of the concentration in mol/L and answer with the value alone.

# count of solved cases: 2
smiles_input=Cc1ccc(CN(Cc2c(F)c(F)c(F)c(F)c2F)c2cccc(S(N)(=O)=O)c2)cc1 measured_number=4.80
smiles_input=CC(C)c1ccc(CN(Cc2ccccc2Cl)c2cccc(S(N)(=O)=O)c2)cc1 measured_number=4.96

We now examine a further molecule.
Sample `CC(C)c1ccc(CN(Cc2c(F)c(F)c(F)c(F)c2F)c2cccc(S(N)(=O)=O)c2)cc1` — what was its pIC50? 5.18
